Target entity: T1, His-tagged ectodomain of human transferrin receptor 1 (hTfR1, R121-F760) (human, UniProt P02786 121-760)
T1 construct: Made in CHO cells; Biotinylated for some uses; also called human TfR1
T1 sequence (P02786 other isoform, or with tags, fused parts or gaps limits assumed): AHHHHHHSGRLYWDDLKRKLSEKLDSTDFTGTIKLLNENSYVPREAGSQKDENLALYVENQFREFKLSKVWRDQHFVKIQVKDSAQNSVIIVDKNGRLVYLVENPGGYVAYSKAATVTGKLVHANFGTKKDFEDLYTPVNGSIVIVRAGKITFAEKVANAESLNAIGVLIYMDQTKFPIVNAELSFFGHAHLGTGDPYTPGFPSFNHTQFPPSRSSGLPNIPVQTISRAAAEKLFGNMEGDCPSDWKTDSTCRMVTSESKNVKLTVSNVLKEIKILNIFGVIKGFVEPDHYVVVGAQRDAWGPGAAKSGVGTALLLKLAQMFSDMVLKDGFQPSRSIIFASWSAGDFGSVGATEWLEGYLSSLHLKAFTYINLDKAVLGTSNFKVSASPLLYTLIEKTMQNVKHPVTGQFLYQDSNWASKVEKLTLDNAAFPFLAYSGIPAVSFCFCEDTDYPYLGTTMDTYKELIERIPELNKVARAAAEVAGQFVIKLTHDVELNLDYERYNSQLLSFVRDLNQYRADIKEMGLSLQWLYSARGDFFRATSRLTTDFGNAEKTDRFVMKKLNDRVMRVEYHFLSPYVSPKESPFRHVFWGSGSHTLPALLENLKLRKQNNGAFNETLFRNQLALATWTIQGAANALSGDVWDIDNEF
Test: SPR Biacore 8K single-cycle; hTfR1 amine-coupled to CM5 chip, fusion as analyte
Quantity name: Kd (pM)
Answer with a number only, understood to be in pM.

Reference set, count: 3
Prompt: Requested field: Kd. Item: scFv-BV (3D6 scFv at the N-terminus of benchmark VHH BV) (bispecific antibody, also called scFc-BV) EVKLVESGGGLVKPGASLKLSCAASGFTFSNYGMSWVRQNSDKRLEWVASIRSGGGRTYYSDNVKGRFTISRENAKNTLYLQMSSLKSEDTALYYCVRYDHYSGSSDYWGQGTTVTVSGGGGSGGGGSGGGGSYVVMTQTPLTLSVTIGQPASISCKSSQSLLDSDGKTYLNWLLQRPGQSPKRLIYLVSKLDSGVPDRFTGSGSGTDFTLKISRIEAEDLGLYYCWQGTHFPRTFGGGTKLEIKGGGGSGGGGSGGGGSEVQLVESGGGVVQPGGSLKLSCVASGTDFSINFIRWYRQAPGKQREFVAGFTATGNTNYADSMKGRFTISRDNTKNAVYLQIDSLKPEDTAVYYCYMLDKWGQGTQVTVSSGSENLYFQSHHHHHH
Completion: 698

Prompt: Continue with scFv-KB_B01 (3D6 scFv at the N-terminus of KB_B01) (bispecific antibody, also called scFv-VHH) EVKLVESGGGLVKPGASLKLSCAASGFTFSNYGMSWVRQNSDKRLEWVASIRSGGGRTYYSDNVKGRFTISRENAKNTLYLQMSSLKSEDTALYYCVRYDHYSGSSDYWGQGTTVTVSGGGGSGGGGSGGGGSYVVMTQTPLTLSVTIGQPASISCKSSQSLLDSDGKTYLNWLLQRPGQSPKRLIYLVSKLDSGVPDRFTGSGSGTDFTLKISRIEAEDLGLYYCWQGTHFPRTFGGGTKLEIKGGGGSGGGGSGGGGSQVQLQESGGGLVQAGGSLRLSCAASGTPFSNNYMRWYRQAPGKQREWVAGFTSGGSTNYADSVKGRFTISRDNAEGTVYLQMDNLKPEDTAVYYCYFLDVWGQGTQVTVSSGSENLYFQSHHHHHH
Completion: 1800

Prompt: Field entry: KB_B01-scFv (KB_B01 at the N-terminus of 3D6 scFv) (bispecific antibody, also called VHH-scFv) QVQLQESGGGLVQAGGSLRLSCAASGTPFSNNYMRWYRQAPGKQREWVAGFTSGGSTNYADSVKGRFTISRDNAEGTVYLQMDNLKPEDTAVYYCYFLDVWGQGTQVTVSSGGGGSGGGGSGGGGSEVKLVESGGGLVKPGASLKLSCAASGFTFSNYGMSWVRQNSDKRLEWVASIRSGGGRTYYSDNVKGRFTISRENAKNTLYLQMSSLKSEDTALYYCVRYDHYSGSSDYWGQGTTVTVSGGGGSGGGGSGGGGSYVVMTQTPLTLSVTIGQPASISCKSSQSLLDSDGKTYLNWLLQRPGQSPKRLIYLVSKLDSGVPDRFTGSGSGTDFTLKISRIEAEDLGLYYCWQGTHFPRTFGGGTKLEIKGSENLYFQSHHHHHH
Completion: 845

For the next question, use this binder.
Prompt: Dear colleague, I am looking for the recorded Kd of the following binder: BV-scFv (benchmark VHH BV at the N-terminus of 3D6 scFv) (bispecific antibody) EVQLVESGGGVVQPGGSLKLSCVASGTDFSINFIRWYRQAPGKQREFVAGFTATGNTNYADSMKGRFTISRDNTKNAVYLQIDSLKPEDTAVYYCYMLDKWGQGTQVTVSSGGGGSGGGGSGGGGSEVKLVESGGGLVKPGASLKLSCAASGFTFSNYGMSWVRQNSDKRLEWVASIRSGGGRTYYSDNVKGRFTISRENAKNTLYLQMSSLKSEDTALYYCVRYDHYSGSSDYWGQGTTVTVSGGGGSGGGGSGGGGSYVVMTQTPLTLSVTIGQPASISCKSSQSLLDSDGKTYLNWLLQRPGQSPKRLIYLVSKLDSGVPDRFTGSGSGTDFTLKISRIEAEDLGLYYCWQGTHFPRTFGGGTKLEIKGSENLYFQSHHHHHH
Completion: 189
